Recorded IC50 values for a group of molecules are listed next.
system: CEM cells HIV-1 protection, formazan growth assay; experiment: NCI AIDS Antiviral Assay; settings: measured here: growth of uninfected CEM cells
Where a SMILES comes first, the peptide text is derived from it.

Illustrative cases are given below, each with its answer.
Look up IC50: O=C1NCN(C2CCCCC2)CN1
> 200 µM

Consider the molecule shown here: Cc1nc2c(s/c(=N\N)n2-c2ccccc2)c(=O)n1C What is its recorded IC50?
> 13.2 µM

Next:
Find the recorded IC50 belonging to CCC(C)C(NC(=O)C1CCCN1C(=O)C(Cc1ccc(O)cc1)NC(=O)C(CC(N)=O)NC(=O)C(CCC(N)=O)NC(=O)C(CO)NC(=O)C(N)C(C)C)C(=O)NC(CC(C)C)C(=O)NC(CCC(N)=O)C(N)=O (centres undefined) (H-VSQNYPILQ-NH2; configuration not given here) and report it.
> 58.9 µM

For the molecule shown here, C=C1C2=C(CCCC2)C(=O)OC12CCCCC2 , give the reported IC50.
> 100 µM
